- assayProtocol: Human HepG2 cell viability assay in 384 well format
- Type: toxicity, cell-based
- Parameters: dose 125 nL, time 70.5 hour; concentration not given beside the values
- measurementContext: HepG2 cells, read-out: Inhibition
attributeMeasured: cytotoxicity at 70.5 h (%)

> print(dat)
                                    molecule  unitssymbol  experimentalvalue
 1  O=C(CCc1cc2n(n1)CCN(Cc1ncc[nH]1)C2)N1CCCC1            %               2.55
 2  O=C(c1ccccn1)N1CCCC2(CCN(c3ccsc3)C2=O)C1 (stereo unspecified)            %               12.8
 3  CC(C)(C)n1ncc2c1NC(=O)CC2c1cccc(O)c1 (stereo unspecified)            %              -4.31
 4  Cc1nc(C)n(CC(=O)N2CCCC(c3cc4ccccc4cn3)C2)n1 (stereo unspecified)            %              -5.39
 5  Cc1ccc(NC(=O)Cc2cnc3n(C)c(=O)[nH]c(=O)n23)cc1            %              -8.62
 6  NCC1[C@H]2CN(Cc3ccccc3F)C[C@@H]12 (stereo partly specified)            %               -6.6
 7          Cc1cccc(=O)n1CCCNc1ncnc2c1CCNCC2            %              -6.31
 8  COCC1CCCN(C(=O)c2ccc(N(C)Cc3cnn(C)c3)nc2)C1 (stereo unspecified)            %                 26
 9  CO[C@H]1CO[C@@]2(CCCN(S(=O)(=O)c3ccccc3)C2)C1            %              -10.1
10  O=C1NCCN1C1CCN(Cc2nc(-c3ccc(F)cc3)no2)CC1            %                 25
11  O=C(NC1CCCN(c2ccccc2Cl)C1)c1ccc(=O)[nH]n1 (stereo unspecified)            %              -12.6

* * *

- assayProtocol: Human HepG2 cell viability assay in 384 well format
- Assay type: toxicity, cell-based
- Parameters: dose 125 nL, time 70.5 hour; concentration not given beside the values
- measurementContext: HepG2 cells, read-out: Inhibition
cytotoxicity at 70.5 h values for the molecules below.
attributeMeasured: cytotoxicity at 70.5 h (%)

> print(dat)
                                    molecule  experimentalvalue
 1   COCc1noc(-c2ccc(N(C)Cc3cn(C)nc3C)nc2)n1              -5.15
 2       CCOc1ncnc2c1CCN(C(=O)NCc1cccnc1)CC2               6.36
 3    CCc1nc(C)sc1CN1CC[C@](O)(CC)[C@H](O)C1              -6.34
 4  CCC1CN(C(=O)COc2ccc(NC(C)=O)cc2)CCO1 (configuration not stated)               13.7
 5  O=C1CSC(c2ccc(Cl)cc2Cl)c2c(n(C3CCOCC3)[nH]c2=O)N1 (configuration not stated)              -23.1
 6     COc1ccc(C(=O)NCCc2nnc3ccccn23)c(OC)c1                  8
 7        Cc1nc(N)nc(N2CCOc3ccc(CO)cc3C2)c1C               25.5
 8      CN(Cc1cscn1)C1CCN(C(=O)OC(C)(C)C)CC1               29.5
 9  O=C(NC1(c2nnn(Cc3ccncc3)n2)CCCC1)c1ccccc1              -1.85
10         O=S(=O)(Cc1nc(C2CC2)no1)c1ccccc1F              -11.9
11           CCc1nnsc1C(=O)N(C)Cc1nnc2n1CCC2               5.35
12      O=C(Nc1cnn(CC(=O)N2CCCO2)c1)c1ccccc1                8.2
